- Tested system: type 2 human 5α-reductase (HRED2) (Homo sapiens)
- Test: Whole cell assay of 5α-reductase, type 2 isoenzyme
- Assay type: cell-based
- Design: expressed in transfected cells; host or cells: rat 1A cells infected with pMV7 retrovirus
- Condition context: 100 μM, Table 7
Reported HRED2 % Inhibition @ 100 μM values for the following compounds.
Dear colleague, please return just the value in %, with no unit written.

Compound: CC/C=C\C/C=C\C/C=C\CCCCCCCC(=O)OC
HRED2 % Inhibition @ 100 μM, %: 18
--
Compound: COc1cc(C(=O)C=Cc2ccc(N(C)C)cc2)cc(OC)c1OC
HRED2 % Inhibition @ 100 μM, %: 15
--
Compound: CC(=O)OC1Cc2c(O)cc(O)cc2OC1c1cc(O)c(O)c(O)c1 (centres unmarked)
HRED2 % Inhibition @ 100 μM, %: 9

Prompt: Look at this compound and give its reported HRED2 % Inhibition @ 100 μM. COc1ccc(-c2coc3cc(O)cc(O)c3c2=O)cc1
Completion: 93

Prompt: Look at this compound and give its reported HRED2 % Inhibition @ 100 μM. O=C(OC1Cc2c(O)cc(O)cc2OC1c1cc(O)c(O)c(O)c1)C1CCCCC1 (centres unmarked)
Completion: 7

Prompt: Look at this compound and give its reported HRED2 % Inhibition @ 100 μM. CCCCC/C=C\C/C=C\C/C=C\CCCCC(=O)O[C@H]1CC[C@@]2(C)C(=CC[C@H]3[C@@H]4CC[C@H]([C@H](C)CCCC(C)C)[C@@]4(C)CC[C@@H]32)C1
Completion: 11

Prompt: Look at this compound and give its reported HRED2 % Inhibition @ 100 μM. O=C(OC1Cc2c(O)cc(O)cc2OC1c1cc(O)c(O)c(O)c1)c1ccc2ccccc2c1 (centres unmarked)
Completion: 96

Prompt: Look at this compound and give its reported HRED2 % Inhibition @ 100 μM. CCCCCC(=O)OC1Cc2c(O)cc(O)cc2OC1c1cc(O)c(O)c(O)c1 (centres unmarked)
Completion: 0

Prompt: Look at this compound and give its reported HRED2 % Inhibition @ 100 μM. Cc1c(O)cc(C(=O)OC2Cc3c(O)cc(O)cc3OC2c2cc(O)c(O)c(O)c2)cc1O (centres unmarked)
Completion: 34

Prompt: Look at this compound and give its reported HRED2 % Inhibition @ 100 μM. COc1cc(C(=O)OC2Cc3c(O)cc(O)cc3OC2c2cc(O)c(O)c(O)c2)cc(OC)c1O (centres unmarked)
Completion: 72

Prompt: Look at this compound and give its reported HRED2 % Inhibition @ 100 μM. CCCCCCCCCCCCCC(=O)OC1Cc2c(O)cc(O)cc2OC1c1cc(O)c(O)c(O)c1 (centres unmarked)
Completion: 98

---

- Tested system: type 2 human 5α-reductase (HRED2) (Homo sapiens)
- Test: Cell free assay of 5α-reductase, microsomes of rat 1A cells expressing type 2 isoenzyme (HRED2);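 further: labeled testosterone and its product dihydrotestosterone measured in microsomal reaction extracts via thin layer chromatography plus radioanalytic scanning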
- Assay type: biochemical
- Set-up: expressed in transfected cells; host or cells: rat 1A cells infected with pMV7 retrovirus; microsomes
- Condition context: cell free assay; Table 5 epigallocatechin derivatives; read-out: HRED2 IC50
pIC50: −log10 of the molar value.
Parameter measured: pIC50

# annotated cases, reported pIC50 shown
Compound: O=C(C=Cc1cc(O)c(O)c(O)c1)OC1Cc2c(O)cc(O)cc2OC1c1cc(O)c(O)c(O)c1 (stereo not shown)
pIC50: 4.17

Compound: O=C(O)OC1Cc2c(O)cc(O)cc2OC1c1cc(O)c(O)c(O)c1 (stereo not shown)
pIC50: < 4.00

Compound: Oc1cc(O)c2c(c1)O[C@H](c1cc(O)c(O)c(O)c1)[C@H](O)C2 [Epigallocatechin]
pIC50: < 4.00

Prompt: Look at this compound and give its reported pIC50. O=C(OC1Cc2c(O)cc(O)cc2OC1c1cc(O)c(O)c(O)c1)c1ccncc1 (stereo not shown)
Completion: < 4.00

---

Reported inhibition at 100 µM values for the following compounds.
- Tested system: UniProt:P31213
- Test: Whole cell assay of 5α-reductase, type 2 isoenzyme
- Format: cell-based
- Parameters: expressed in transfected cells; host or cells: rat 1A cells infected with pMV7 retrovirus
- Condition context: 100 μM, Table 7
Dear colleague, please return just the value in %, with no unit written.

# annotated cases, reported inhibition at 100 µM shown
Compound: CC(C)OC(=O)c1cc(O)c(O)c(O)c1 [Isopropyl Gallate]
inhibition at 100 µM [%]: 0
--
Compound: O=C1c2ccccc2C(=O)c2c1ccc(O)c2O
inhibition at 100 µM [%]: 27
--
Compound: COc1cc(CCC(=O)CC(=O)CCc2ccc(O)c(OC)c2)ccc1O [Tetrahydrocurcumin]
inhibition at 100 µM [%]: 92
--
Compound: CCCCCCCCCCCCOC(=O)c1cc(O)c(O)c(O)c1 [Dodecylgallate]
inhibition at 100 µM [%]: 98

# input for lookup
Prompt: Look at this compound and give its reported inhibition at 100 µM. O=C(O)c1cc(O)c(O)c(O)c1
Completion: 0

---

- Tested system: type 1 human 5α-reductase (HRED1) (Homo sapiens)
- Sequence (P18405 1-259): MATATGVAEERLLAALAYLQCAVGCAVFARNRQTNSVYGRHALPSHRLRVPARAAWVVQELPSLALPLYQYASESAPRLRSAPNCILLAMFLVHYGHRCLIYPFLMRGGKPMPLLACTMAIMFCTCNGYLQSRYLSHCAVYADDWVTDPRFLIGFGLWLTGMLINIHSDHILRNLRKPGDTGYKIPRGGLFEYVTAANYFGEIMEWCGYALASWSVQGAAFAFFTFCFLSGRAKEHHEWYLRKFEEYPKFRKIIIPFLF
- Test: Cell free assay of 5α-reductase, microsomes of rat 1A cells expressing type 1 isoenzyme (HRED1)
- Type: biochemical
- Set-up: expressed in transfected cells; host or cells: rat 1A cells infected with pMV7 retrovirus; microsomes
- Condition context: cell-free assay
Parameter measured: inhibitory activity against type 1 isoenzyme, in words

Compound: O=C(O[C@@H]1Cc2c(O)cc(O)cc2O[C@@H]1c1cc(O)c(O)c(O)c1)c1cc(O)c(O)c(O)c1 [Epigallocatechin Gallate]
Val: high
--
Compound: COc1cc(/C=C/C(=O)CC(=O)/C=C/c2ccc(O)c(OC)c2)ccc1O
Val: very effective inhibitor
--
Compound: O=C1c2ccccc2C(=O)c2c1ccc(O)c2O
Val: very effective inhibitor

---

Reported IC50 values for the following compounds.
- Tested system: type 1 human 5α-reductase (HRED1) (Homo sapiens, UniProt P18405)
- Test: Cell free assay of 5α-reductase, microsomes of rat 1A cells expressing type 1 isoenzyme (HRED1);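 further: microsomes from rat 1A cells expressing human type 1 5α-reductase, conversion of radiolabeled testosterone to dihydrotestosterone quantified by thin layer chromatography with radioanalytic scanning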
- Type: biochemical
- Set-up: expressed in transfected cells; host or cells: rat 1A cells infected with pMV7 retrovirus; microsomes
- Condition context: cell free assay; Table 5 epigallocatechin derivatives; read-out: HRED1 IC50

# annotated cases, reported IC50 shown
Compound: O=C(O)OC1Cc2c(O)cc(O)cc2OC1c1cc(O)c(O)c(O)c1 (centres unmarked) [HZIV 109]
IC50: > 100 µM

Compound: CCCCCCCCCCCCCCCCCC(=O)OC1Cc2c(O)cc(O)cc2OC1c1cc(O)c(O)c(O)c1 (centres unmarked) [HZIV 148]
IC50: > 100 µM

Prompt: Look at this compound and give its reported IC50. Oc1cc(O)c2c(c1)O[C@H](c1cc(O)c(O)c(O)c1)[C@H](O)C2 [Epigallocatechin]
Completion: 62 µM

---

- Tested system: type 1 human 5α-reductase (HRED1) (Homo sapiens)
- Test: Cell free assay of 5α-reductase, microsomes of rat 1A cells expressing type 1 isoenzyme (HRED1)
- Format: biochemical
- Design: expressed in transfected cells; host or cells: rat 1A cells infected with pMV7 retrovirus; microsomes
- Condition context: 100 μM; cell free assay; Table 4; read-out: HRED1 % Inhibition @ 100 μM
Reported inhibition at 100 µM values for the following compounds.
Dear colleague, please return just the value in %, with no unit written.

Compound: O=C1c2cccc(O)c2C(=O)c2cccc(O)c21 [Anthrarufin]
Tested system: type 1 human 5α-reductase (HRED1) (Homo sapiens)
Parameter measured: inhibition at 100 µM
Val: 67

Prompt: Look at this compound and give its reported inhibition at 100 µM. O=C1c2ccc(O)cc2C(=O)c2ccc(O)cc21 [Anthraflavic Acid]
Completion: 27

Prompt: Look at this compound and give its reported inhibition at 100 µM. CC(C)=CCC1=C(O)C(=O)c2ccccc2C1=O [Lapachol]
Completion: 30

Prompt: Look at this compound and give its reported inhibition at 100 µM. O=C1c2ccccc2C(=O)c2c(O)ccc(O)c21 [Quinizarin]
Completion: 26

---

- Tested system: type 2 human 5α-reductase (HRED2) (Homo sapiens, UniProt P31213)
- Sequence (P31213 1-254): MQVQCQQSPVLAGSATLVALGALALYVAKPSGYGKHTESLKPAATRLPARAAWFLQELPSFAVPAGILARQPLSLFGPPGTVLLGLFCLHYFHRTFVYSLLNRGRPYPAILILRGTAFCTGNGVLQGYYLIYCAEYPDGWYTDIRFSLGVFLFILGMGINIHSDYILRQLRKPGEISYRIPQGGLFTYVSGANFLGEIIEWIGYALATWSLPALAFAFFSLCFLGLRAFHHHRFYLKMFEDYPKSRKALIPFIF
- Test: Whole cell assay of 5α-reductase, type 2 isoenzyme;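 further: intact rat 1A cells genetically modified to carry human type 2 5α-reductase served as the enzyme source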
- Type: cell-based
- Design: expressed in transfected cells; host or cells: rat 1A cells infected with pMV7 retrovirus
- Condition context: Table 7, read-out: HCRED2 IC50
pIC50: −log10 of the molar value.
Reported pIC50 values for the following compounds.

Compound: COc1cc(CCNC(=O)C=Cc2ccc(O)c(O)c2)ccc1O
Parameter measured: pIC50
Val: < 4.00

Compound: CCCCCCCCCCCCCC(=O)OC1Cc2c(O)cc(O)cc2OC1c1cc(O)c(O)c(O)c1 (centres unmarked)
Parameter measured: pIC50
Val: 4.49

Compound: O=C(OC1Cc2c(O)cc(O)cc2OC1c1cc(O)c(O)c(O)c1)c1ccc2ccccc2c1 (centres unmarked)
Parameter measured: pIC50
Val: 4.24

Compound: O=C1c2ccccc2C(=O)c2c1ccc(O)c2O
Parameter measured: pIC50
Val: < 4.00

Compound: O=C(O[C@@H]1Cc2c(O)cc(O)cc2O[C@@H]1c1ccc(O)c(O)c1)c1cc(O)c(O)c(O)c1 [Epicatechin Gallate]
Parameter measured: pIC50
Val: < 4.00

Compound: O=c1c(O)c(-c2ccc(O)cc2)oc2cc(O)cc(O)c12
Parameter measured: pIC50
Val: 4.70

# input for lookup
Prompt: Look at this compound and give its reported pIC50. CC(C)OC(=O)c1cc(O)c(O)c(O)c1 [Isopropyl Gallate]
Completion: < 4.00

Where do these numbers come from? They come from patent US20030144346A1.
